List of switch fluorescence ratio values.
# Test system: ATP;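 also: ATP exposure 15 min at 22 °C before imaging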
# Assay procedure: switch fluorescence ratio, 500 uM ATP over buffer (Cy3 cluster intensity, sum of 5 cycles each) (fold (ratio)); higher = stronger signal-on switching upon ATP binding; sequences stand for … in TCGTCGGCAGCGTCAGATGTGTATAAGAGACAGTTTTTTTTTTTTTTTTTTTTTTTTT…TC
# Condition description: aptamer strand: ATP DNA aptamer (quencher-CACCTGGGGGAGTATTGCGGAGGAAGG + anchor), 100 nM annealed; ATP concentration: 500 uM
When you answer, write just the number.

# annotated cases, reported switch fluorescence ratio shown
[[record]]
polymer_sequence = "CTCGCGACGA"
endpoint_name = "switch fluorescence ratio"
value = 1.06

[[record]]
polymer_sequence = "TCTATGGTCT"
endpoint_name = "switch fluorescence ratio"
value = 0.99

[[record]]
polymer_sequence = "AATTGGTAAA"
endpoint_name = "switch fluorescence ratio"
value = 0.982


Challenge: Quick one: switch fluorescence ratio for "GAGGGGAAGT" ?
Response given: 0.998

Challenge: Follow-up entry: "TAGGATCGGA"
Response given: 0.96

Challenge: Follow-up entry: "GAAATTAGTT"
Response given: 0.991

Challenge: Follow-up entry: "AGTTGAAGTT"
Response given: 1.02

* * *

List of switch fluorescence ratio values.
# Tested on: ATP;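 also: ATP exposure 15 min at 22 °C before imaging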
# Assay procedure: switch fluorescence ratio, 500 uM ATP over buffer (Cy3 cluster intensity, sum of 5 cycles each) (fold (ratio)); higher = stronger signal-on switching upon ATP binding; sequences stand for … in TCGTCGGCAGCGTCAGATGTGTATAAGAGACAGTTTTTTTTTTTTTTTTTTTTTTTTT…TC
# Condition description: aptamer strand: ATP DNA aptamer (quencher-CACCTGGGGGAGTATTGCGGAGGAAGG + anchor), 100 nM annealed; ATP concentration: 500 uM
When you answer, write just the number.

Challenge: Quick one: switch fluorescence ratio for "TGCCAACAGA" ?
Response given: 1.25

Challenge: Follow-up entry: "GAGCTGGGGA"
Response given: 0.983

* * *

# Test system: ATP;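 also: ATP exposure 15 min at 22 °C before imaging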
# Assay procedure: switch fluorescence ratio, 500 uM ATP over buffer (Cy3 cluster intensity, sum of 5 cycles each) (fold (ratio)); higher = stronger signal-on switching upon ATP binding; sequences stand for … in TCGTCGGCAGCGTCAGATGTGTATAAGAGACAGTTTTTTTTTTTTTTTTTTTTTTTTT…TC
# Condition description: aptamer strand: ATP DNA aptamer (quencher-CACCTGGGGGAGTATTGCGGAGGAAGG + anchor), 100 nM annealed; ATP concentration: 500 uM
Given measured switch fluorescence ratio, output yes (1) if it is greater than or equal to 1 and no (0) if not.

The following sequences have reported results that may help.
[[record]]
polymer_sequence = "AAACCGACAT"
assigned_class = "yes (1)"

[[record]]
polymer_sequence = "GGGTAAGGGG"
assigned_class = "yes (1)"

[[record]]
polymer_sequence = "CTTAGGCGGT"
assigned_class = "yes (1)"

[[record]]
polymer_sequence = "CACGTATCTC"
assigned_class = "yes (1)"


Challenge: Entry "AGCCGGGTAG" : is its switch fluorescence ratio no less than 1?
Response given: yes (1)

Challenge: Follow-up entry: "CAGAACCCGC"
Response given: yes (1)

Challenge: Follow-up entry: "TAGGAGAGGG"
Response given: no (0)

Challenge: Follow-up entry: "GAGTTGTCTT"
Response given: no (0)

Challenge: Follow-up entry: "GGAGGTGG"
Response given: no (0)

Challenge: Follow-up entry: "TCCAGAGGGA"
Response given: yes (1)

Challenge: Follow-up entry: "TGGGCTTTAG"
Response given: no (0)

Challenge: Follow-up entry: "TATCGAAGCG"
Response given: no (0)

Challenge: Follow-up entry: "CCGGGGCCTA"
Response given: yes (1)

* * *

List of switch fluorescence ratio values.
# Test system: ATP;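 also: ATP exposure 15 min at 22 °C before imaging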
# Assay procedure: switch fluorescence ratio, 500 uM ATP over buffer (Cy3 cluster intensity, sum of 5 cycles each) (fold (ratio)); higher = stronger signal-on switching upon ATP binding; sequences stand for … in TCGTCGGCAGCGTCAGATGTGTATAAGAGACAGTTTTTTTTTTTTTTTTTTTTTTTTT…TC
# Condition description: aptamer strand: ATP DNA aptamer (quencher-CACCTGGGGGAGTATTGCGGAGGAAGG + anchor), 100 nM annealed; ATP concentration: 500 uM
When you answer, write just the number.

[[record]]
polymer_sequence = "TCGTCCGAAG"
value = 1.45

[[record]]
polymer_sequence = "TTGCTCATAT"
value = 1.02

[[record]]
polymer_sequence = "AAAGCGTGCG"
value = 0.964

[[record]]
polymer_sequence = "GGGGGAGCGA"
value = 0.98

[[record]]
polymer_sequence = "ACTTGGTCTT"
value = 0.974


Challenge: Quick one: switch fluorescence ratio for "CTGTTCACGG" ?
Response given: 1.02

Challenge: Follow-up entry: "AGCGGGGGTT"
Response given: 1

Challenge: Follow-up entry: "TTAGATGTCC"
Response given: 0.982

Challenge: Follow-up entry: "ATATGTGGGC"
Response given: 0.958

Challenge: Follow-up entry: "ATGGGAAATC"
Response given: 0.998

Challenge: Follow-up entry: "GGGAGATAGA"
Response given: 0.982

Challenge: Follow-up entry: "TAGGGGGAT"
Response given: 1.01

Challenge: Follow-up entry: "ACGATTCAAG"
Response given: 1.02

Challenge: Follow-up entry: "TTTCATCCCC"
Response given: 1.07

Challenge: Follow-up entry: "ATTTCTCAAT"
Response given: 1.01

Challenge: Follow-up entry: "AGGGGGGTT"
Response given: 1.01

Challenge: Follow-up entry: "AAGTTTACGC"
Response given: 0.983

Challenge: Follow-up entry: "TTTGAACTGT"
Response given: 1.18

Challenge: Follow-up entry: "ATTGGTAACC"
Response given: 1.01

Challenge: Follow-up entry: "TGGTGGCCGC"
Response given: 0.982

Challenge: Follow-up entry: "CCCTGGCACT"
Response given: 1.12

Challenge: Follow-up entry: "AATGGCATGG"
Response given: 1.02

Challenge: Follow-up entry: "TCCCCGCGCT"
Response given: 1.25

Challenge: Follow-up entry: "AATAACTAGA"
Response given: 0.98

Challenge: Follow-up entry: "CGGGCATTGT"
Response given: 1.01

Challenge: Follow-up entry: "TATATTAGCC"
Response given: 1.03

Challenge: Follow-up entry: "ATTTAACGAG"
Response given: 1.01

Challenge: Follow-up entry: "ATTGGCGGTT"
Response given: 1.09

Challenge: Follow-up entry: "TTTTCATATC"
Response given: 1.04

* * *

# Tested on: ATP;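 also: ATP exposure 15 min at 22 °C before imaging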
# Assay procedure: switch fluorescence ratio, 500 uM ATP over buffer (Cy3 cluster intensity, sum of 5 cycles each) (fold (ratio)); higher = stronger signal-on switching upon ATP binding; sequences stand for … in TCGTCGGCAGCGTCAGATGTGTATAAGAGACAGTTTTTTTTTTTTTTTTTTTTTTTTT…TC
# Condition description: aptamer strand: ATP DNA aptamer (quencher-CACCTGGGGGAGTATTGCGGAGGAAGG + anchor), 100 nM annealed; ATP concentration: 500 uM
List of switch fluorescence ratio values.
When you answer, write just the number.

[[record]]
polymer_sequence = "GCTGGTTCTG"
value = 0.982


Challenge: Quick one: switch fluorescence ratio for "TTGGGACGGG" ?
Response given: 0.994

Challenge: Follow-up entry: "ACAGTGGGAA"
Response given: 1.01

Challenge: Follow-up entry: "AACAGGATGC"
Response given: 1.03

* * *

# System: ATP;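 also: ATP exposure 15 min at 22 °C before imaging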
# Assay procedure: switch fluorescence ratio, 500 uM ATP over buffer (Cy3 cluster intensity, sum of 5 cycles each) (fold (ratio)); higher = stronger signal-on switching upon ATP binding; sequences stand for … in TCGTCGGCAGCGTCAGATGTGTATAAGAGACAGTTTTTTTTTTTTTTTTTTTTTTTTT…TC
# Condition description: aptamer strand: ATP DNA aptamer (quencher-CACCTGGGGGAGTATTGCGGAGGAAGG + anchor), 100 nM annealed; ATP concentration: 500 uM
Endpoint name: switch fluorescence ratio
When you answer, write just the number.

# annotated cases, reported switch fluorescence ratio shown
[[record]]
polymer_sequence = "TTCAGCGGGA"
value = 0.992

[[record]]
polymer_sequence = "TCGATTTTGG"
value = 1

[[record]]
polymer_sequence = "TTATATATTG"
value = 0.969

[[record]]
polymer_sequence = "ATTTGGGGGT"
value = 0.997

[[record]]
polymer_sequence = "TCCGGGATCC"
value = 1.25


Challenge: Quick one: switch fluorescence ratio for "ATAAAAGAAT" ?
Response given: 0.998

Challenge: Follow-up entry: "TTTTCCT"
Response given: 1.04

Challenge: Follow-up entry: "TAGGAAAGGC"
Response given: 0.982

Challenge: Follow-up entry: "GTTATAGGTG"
Response given: 1.06

Challenge: Follow-up entry: "ATATAAGGGA"
Response given: 1

Challenge: Follow-up entry: "GGTGTAGTTG"
Response given: 0.999

Challenge: Follow-up entry: "GTCAGCTAAC"
Response given: 1.48

Challenge: Follow-up entry: "GGCTTTTGTG"
Response given: 0.974

Challenge: Follow-up entry: "ACAATGAGTT"
Response given: 0.985

Challenge: Follow-up entry: "AGTGGGTATA"
Response given: 1.01

Challenge: Follow-up entry: "TTTTGATCGG"
Response given: 0.982

Challenge: Follow-up entry: "CGTACTTGTT"
Response given: 1.01

Challenge: Follow-up entry: "TGTTTCATTC"
Response given: 0.978

Challenge: Follow-up entry: "CCAACCAAGG"
Response given: 1.16

Challenge: Follow-up entry: "TATGAGGGG"
Response given: 0.999

Challenge: Follow-up entry: "AACTGTAAAT"
Response given: 1.25
